ASSAYED TARGET: PCP recognition sites
METHOD NOTES: [3H]TCP Radioreceptor Assay (internal screen)
Assay type: binding, rat (male Sprague-Dawley
MEASUREMENT SETUP: rat whole brain membranes; ~1 nM [3H]TCP; room temperature, 25 min
# note: exactly 500 nM is not below, so it is N; use Y for Ki strictly under it

Regarding CCOC1(OCC)C2c3c(ccc4c3OCO4)C([n+]3ccccc32)C1(C)C.[O-][Cl+3]([O-])([O-])[O-] (centres unmarked) [Example 31] , kindly confirm whether its Ki is beneath 500 nM.
Y

Continuing:
Regarding CCOC1(OCC)C2c3cccc(C)c3C([n+]3ccccc32)C1(C)C (centres unmarked) [Example 55] , kindly confirm whether its Ki is beneath 500 nM.
Y

Would you mind doing CCOC1(OCC)C2c3ccccc3C([n+]3cccc(OC)c32)C1(C)C.[O-][Cl+3]([O-])([O-])[O-] (centres unmarked) [Example 33] as well?
Y

Would you mind doing CCOC1(OCC)CC2c3cc(C)c(C)cc3C1c1cccc[n+]12.[O-][Cl+3]([O-])([O-])[O-] (centres unmarked) [63(i)] as well?
N

Would you mind doing CCOC1(OCC)C2c3ccccc3C(C1C)[n+]1ccccc12.[O-][Cl+3]([O-])([O-])[O-] (centres unmarked) [63(d)] as well?
Y
